B1: PhoQ; a variant is named by its letters at X, in order, P23837 (parent)
chain: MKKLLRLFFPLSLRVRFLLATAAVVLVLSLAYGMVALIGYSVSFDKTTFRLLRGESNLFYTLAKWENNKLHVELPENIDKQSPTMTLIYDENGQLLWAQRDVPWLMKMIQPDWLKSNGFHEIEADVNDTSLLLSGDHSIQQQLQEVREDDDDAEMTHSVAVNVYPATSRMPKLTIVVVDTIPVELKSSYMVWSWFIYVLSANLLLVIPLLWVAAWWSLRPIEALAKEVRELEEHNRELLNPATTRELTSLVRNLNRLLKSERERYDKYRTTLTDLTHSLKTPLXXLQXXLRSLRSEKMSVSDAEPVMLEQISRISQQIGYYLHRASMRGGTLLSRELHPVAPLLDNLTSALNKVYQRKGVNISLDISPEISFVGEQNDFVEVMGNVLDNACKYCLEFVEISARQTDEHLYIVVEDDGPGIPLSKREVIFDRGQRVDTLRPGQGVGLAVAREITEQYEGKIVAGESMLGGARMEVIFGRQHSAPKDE

Variants of: B1
procedure-details: enrichment ratio after two sorts for PhoP signalling (ratio (wild type AVST 3.29)); higher = more functional
conditions-used: with PhoP (E. coli)
The full ranking holds about 140,000 sequences; the median of “enrichment ratio after two sorts for PhoP signalling” is about 0, and the highest 2% start at about 11. Shown is part of a subset that was picked to be rich in the highest values.
Record form. Attribute: enrichment ratio. Fill in for each entry.

Below are worked cases with known answers.
1) TEMV : 20.2
2) AGYL : 4.28
3) HRWF : ≤ 0.25

The following variants each have a reported value; give each one's enrichment ratio.
1. DIRA
2. TCFK
3. QSPM
4. RDRE
5. IIGT
6. SACK
7. TEMW

1: ≤ 0.25; 2: ≤ 0.25; 3: ≤ 0.25; 4: ≤ 0.25; 5: ≤ 0.25; 6: 0.562; 7: ≤ 0.25

The following variants each have a reported value; give each one's enrichment ratio.
1. YTGI
2. TCVC
3. SAPE
4. PRMN
5. PAGC
6. SAQP
7. TEEV

1: ≤ 0.25; 2: ≤ 0.25; 3: ≤ 0.25; 4: ≤ 0.25; 5: ≤ 0.25; 6: ≤ 0.25; 7: ≤ 0.25

The following variants each have a reported value; give each one's enrichment ratio.
1. AGCC
2. QMHF
3. MFKL
4. SACQ

1. 16.1
2. 13.5
3. ≤ 0.25
4. 13.5

The following variants each have a reported value; give each one's enrichment ratio.
1. IYHP
2. PGAV
3. VEWS
4. QSTH
5. VRWH
6. VELA

1. ≤ 0.25
2. ≤ 0.25
3. 2.49
4. ≤ 0.25
5. ≤ 0.25
6. ≤ 0.25
